experimental-system: recombinant human MMP-1 (Homo sapiens, UniProt P03956)
Construct: made in house; host or cells: transfected HT-1080 cells (provided by Dr. Harold Welgus, Washington University)
Sequence (P03956 100-469): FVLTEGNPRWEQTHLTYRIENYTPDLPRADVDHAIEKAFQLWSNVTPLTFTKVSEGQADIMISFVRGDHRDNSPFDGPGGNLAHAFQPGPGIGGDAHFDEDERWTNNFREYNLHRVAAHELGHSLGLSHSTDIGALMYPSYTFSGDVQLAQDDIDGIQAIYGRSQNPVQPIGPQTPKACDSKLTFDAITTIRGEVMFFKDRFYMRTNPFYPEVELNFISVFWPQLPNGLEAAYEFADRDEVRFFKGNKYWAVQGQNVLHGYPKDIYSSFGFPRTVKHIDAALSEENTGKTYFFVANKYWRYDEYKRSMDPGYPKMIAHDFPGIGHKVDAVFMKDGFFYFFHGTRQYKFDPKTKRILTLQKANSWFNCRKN
test-summary: biochemical
test-settings: Inhibition Table B; read-out: MMP-1 IC50
pIC50: −log10 of the molar value. Counter-ions that a name gives are not always drawn.
metric: pIC50

O=C(NO)C1(S(=O)(=O)c2ccc(Sc3ccc(O)cc3)cc2)CCSCC1    5.52
O=C(NO)C1(S(=O)(=O)c2ccc(Sc3ccc(F)cc3)cc2)CCOCC1    < 5.00
COCCN1CCC(C(=O)NO)(S(=O)(=O)c2ccc(Sc3ccccc3)cc2)CC1 [Example 35, Monohydrochloride]    < 5.00
O=C(NO)C1(S(=O)(=O)c2ccc(Sc3ccccc3)cc2)CC[S+]([O-])CC1 (stereo not shown)    < 5.00
Nc1cccc(-c2ccc(S(=O)(=O)C3(C(=O)NO)CCOCC3)cc2)c1    > 7.00
O=C(NCC(F)(F)F)C1CCN(c2ccc(S(=O)(=O)C3(C(=O)NO)CCOCC3)cc2)CC1    5.30
Nc1cc(C(F)(F)F)ccc1Sc1ccc(S(=O)(=O)C2(C(=O)NO)CCOCC2)cc1 [Example 61, Monohydrochloride]    < 5.00
CC(=O)N1CCC(C(=O)NO)(S(=O)(=O)c2ccc(Sc3ccccc3)cc2)CC1.Cl [Example 36, Monohydrochloride]    5.14

Now for another entry.
Notebook: O=C(NCc1ccc(F)cc1)C1CCN(c2ccc(S(=O)(=O)C3(C(=O)NO)CCOCC3)cc2)CC1 , pIC50 read as 5.15

* * *

experimental-system: recombinant human MMP-13 (Homo sapiens, UniProt P45452)
test-summary: biochemical
metric: IC50 (nM)
Quick reminder: number only, in nM, skip the unit.

Reference set (2 entries):
O=C(NO)C1(S(=O)(=O)c2ccc(Oc3ccccc3)cc2)CCN(C2CC2)CC1    0.3
CS(=O)(=O)N1CCC(C(=O)NO)(S(=O)(=O)c2ccc(Oc3ccccc3)cc2)CC1    0.5

Field: next compound
Record O=C(NO)C1(S(=O)(=O)c2ccc(Oc3ccccc3)cc2)CCN(CC2CC2)CC1 has recombinant human MMP-13 (Homo sapiens, UniProt P45452) IC50 equal to 0.3

* * *

experimental-system: recombinant human MMP-13 (Homo sapiens, UniProt P45452)
test-summary: biochemical
test-settings: Inhibition Table B; read-out: MMP-13 IC50
The label Criterion met is reserved for IC50 strictly under 10 nM; Criterion not met covers values equal to or above it.

Examples with answers:
O=C(NO)C1(S(=O)(=O)c2ccc(Sc3ccccc3)cc2)CCSCC1    Criterion not met
O=C(NO)C1(S(=O)(=O)c2ccc(Sc3ccccc3)cc2)CCS(=O)(=O)CC1    Criterion met
O=C(NOC1CCCCO1)C1(S(=O)(=O)c2ccc(F)cc2)CCOCC1 (centres unmarked)    Criterion met

Q: Does the reported IC50 of the following compound sit strictly below 10 nM? Nc1ccc(Sc2ccc(S(=O)(=O)C3(C(=O)NO)CCOCC3)cc2)cc1
Ans: Criterion met

Q: Does this compound meet the criterion IC50 < 10 nM? O=C(NO)C1(S(=O)(=O)c2ccc(-c3ccccc3)cc2)CCOCC1
Ans: Criterion met

Q: Threshold test, IC50 < 10 nM: O=C(C1CCN(c2ccc(S(=O)(=O)C3(C(=O)NO)CCOCC3)cc2)CC1)N1CCCC1
Ans: Criterion not met

Q: Strictly below 10 nM: is that where IC50 of O=C(NO)C1(S(=O)(=O)c2ccc(Oc3ccccc3)cc2)CC[S+]([O-])CC1 (centres unmarked) sits?
Ans: Criterion met
